Read-out: Tumor necrosis factor (Homo sapiens) (UniProt P01375)
Sequence (P01375 whole entry, looked up): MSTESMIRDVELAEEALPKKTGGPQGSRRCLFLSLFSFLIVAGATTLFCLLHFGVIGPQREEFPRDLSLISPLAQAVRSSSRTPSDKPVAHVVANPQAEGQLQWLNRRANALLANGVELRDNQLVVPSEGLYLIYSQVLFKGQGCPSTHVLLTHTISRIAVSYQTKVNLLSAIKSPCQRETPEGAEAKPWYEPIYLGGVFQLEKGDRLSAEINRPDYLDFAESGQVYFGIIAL
Measurement description: BSK_BT_xTNFa: BioMAP Diversity Plus: BT Assay for Tumor necrosis factor alpha (TNF-alpha) Biomarker Activity (AID 2284230)
Conditions used: primary human B cells with PBMC
Activity calls are given as the source filed them. Rule for the calls: active = hit-call score of the fitted dose curve at least 0.9, where 1 is the maximum; inactive = score below 0.9.
Result category, one only: class 1 = active, class 0 = inactive

CCCCCCCCCCCCCCCC(=O)OC/C=C(C)/C=C/C=C(C)/C=C/C1=C(C)CCCC1(C)C    class 0
CCCCOC(=O)CCCCCCCC(=O)OCCCC    class 0
CCN(CC)C(=O)N(CC)CC    class 0
COc1cc(Cl)c(OC)cc1N    class 0
C=C(C)C(=O)OCCOCCOCCOC(=O)C(=C)C    class 0

**Q:** How was C[C@@H]1CCN(C(=O)[C@H](CCCN=C(N)N)NS(=O)(=O)c2cccc3c2NC[C@H](C)C3)[C@@H](C(=O)O)C1 classified in this test?
**A:** class 0

**Q:** Record: CCC(C)c1cc([N+](=O)[O-])cc([N+](=O)[O-])c1OC(=O)OC(C)C (configuration not stated)
**A:** class 1

###

Assayed target: Nuclear receptor subfamily 1 group I member 2 (Homo sapiens)
Measurement description: ATG_PXR_TRANS: Attagene TRANS-FACTORIAL HepG2 Assay for human Pregnane X Receptor (PXR) (AID 2283008)
Inconclusive results are not listed. The source made the active and inactive calls. How the source made its calls: active means hit-call score of the fitted dose curve at least 0.9, where 1 is the maximum; inconclusive means response in the unintended direction; inactive means score below 0.9.
Result category, one only: t = active, f = inactive

Example entries and their recorded answers appear below.
N[C@@H](Cc1cc(I)c(Oc2cc(I)c(O)c(I)c2)c(I)c1)C(=O)O    t
CC1(C)C2=CCCC(C)(C)[C@]23CC[C@H]1C3    t
CN(C)C(=S)SC(=S)N(C)C    f
CCOc1ccccc1O    f
C#CC(C)(O)CC(C)C (centres undefined)    f
C=C(C#N)C(=O)OCC    f

**Q:** How was CC1(C)O[C@@H]2[C@@H](CO[C@@]3(COS(N)(=O)=O)OC(C)(C)O[C@@H]23)O1 classified in this test?
**A:** f

**Q:** Record: CC(C)(C)c1ccc(C(=O)O)cc1
**A:** f

**Q:** Record: CCCCCCCCCC(C)C=O (centres undefined)
**A:** f

###

Assayed target: Cellular tumor antigen p53 (Homo sapiens) (UniProt P04637)
Sequence (P04637 whole entry, looked up): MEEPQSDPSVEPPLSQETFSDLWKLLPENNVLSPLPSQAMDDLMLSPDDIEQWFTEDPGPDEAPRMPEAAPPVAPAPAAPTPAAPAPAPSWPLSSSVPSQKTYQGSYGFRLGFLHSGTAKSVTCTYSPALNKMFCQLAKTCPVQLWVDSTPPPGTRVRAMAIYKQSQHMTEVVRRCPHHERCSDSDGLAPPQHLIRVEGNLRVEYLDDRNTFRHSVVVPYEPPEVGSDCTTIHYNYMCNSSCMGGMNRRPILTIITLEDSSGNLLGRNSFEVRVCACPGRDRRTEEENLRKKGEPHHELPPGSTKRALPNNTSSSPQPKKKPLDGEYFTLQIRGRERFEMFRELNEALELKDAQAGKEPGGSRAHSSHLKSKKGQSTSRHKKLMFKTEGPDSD
Measurement description: TOX21_p53_BLA_p2_ratio: Tox21 HCT-116 p53 Agonism Beta-lactamase Assay, Ratio, Phase 2 (AID 2283592)
Results filed as inconclusive are left out. Activity calls are given as the source filed them. How the source made its calls: active means hit-call score of the fitted dose curve at least 0.9, where 1 is the maximum; inconclusive means response in the unintended direction; inactive means score below 0.9.
Experimental endpoint: outcome

Example results:
O=C(O)CCCCCCCCC(=O)O    inactive
CC(C)c1ccccc1O    inactive
CCCC1O[C@@H]2C[C@H]3[C@@H]4CCC5=CC(=O)C=C[C@]5(C)[C@H]4[C@@H](O)C[C@]3(C)[C@]2(C(=O)CO)O1 (stereo partly drawn)    inactive
CC1(C)C2=CCCC(C)(C)[C@]23CC[C@H]1C3    inactive
N#Cc1cscn1    inactive
CC(C)C(OC(=O)c1ccccc1)C(C)(C)COC(=O)c1ccccc1 (stereo not drawn)    inactive
C[C@H]1C[C@@H](O)CC(C)(C)C1    inactive
CS(=O)(=O)OCCCCOS(C)(=O)=O    inactive
OCC#CCO    inactive
OCCOCCN1CCN(C2=Nc3ccccc3Sc3ccccc32)CC1    inactive

**Q:** For the compound COC(=O)c1ccc(C)cc1C1=NC(C)(C(C)C)C(=O)N1 (stereo not drawn) (tested in a mixture with another compound) , what outcome is on record?
**A:** inactive

**Q:** Record: COc1cc(CCC(C)=O)ccc1O
**A:** inactive

**Q:** Record: O=CCc1ccccc1
**A:** inactive

**Q:** Record: CC(C)OCCO
**A:** inactive

**Q:** Record: CCCCN(CCCC)C(=O)N(CCCC)CCCC
**A:** inactive

**Q:** Record: CCCCCCOC(=O)CCC
**A:** inactive

**Q:** Record: CC(=O)OCCCc1ccccc1
**A:** inactive

**Q:** Record: CCN(CC)C(=O)N(CC)CC
**A:** inactive

###

Assayed target: Hypoxia-inducible factor 1-alpha (Homo sapiens)
Measurement description: ATG_HIF1a_CIS: Attagene CIS-FACTORIAL HepG2 Assay for human Hypoxia Inducible Factor 1 (HIF1A) (AID 2282951)
Conditions used: HepG2 Attagene cis-factorial HIF1a reporter transcription; actives raise or lower the signal
Protocol: ATG_CIS is a cell-based, multiplexed-readout assay that uses HepG2, a human liver cell line, with measurements taken at 24 hours after chemical dosing in a 24-well plate.ATG_HIF1a_CIS is one of 52 assay component(s) measured or calculated from the ATG_CIS assay. […] This assay endpoint, ATG_HIF1a_CIS, was analyzed with bidirectional fitting relative to DMSO as the negative control and baseline of activity. […]
The source made the active and inactive calls. How the source made its calls: active means hit-call score of the fitted dose curve at least 0.9, where 1 is the maximum; inactive means score below 0.9.
Result category, one only: active, inactive

Example entries and their recorded answers appear below.
COc1ccc(CCC(C)=O)cc1    inactive
C=C(C)C1CC=C(C)C(=O)C1 (centres undefined)    inactive
Nc1ccccc1[N+](=O)[O-]    inactive
O=C1OC(=O)c2c(Cl)c(Cl)c(Cl)c(Cl)c21    inactive
CC(=O)OCCCc1ccccc1    inactive
Cc1cc(S(=O)(=O)O)ccc1N=Nc1c(O)ccc2ccccc12    inactive

**Q:** How was COc1ccc(OC)c(N=Nc2c(O)ccc3ccccc23)c1 classified in this test?
**A:** inactive

**Q:** Record: O=C1CCCC=CCCCCCCCCCC1
**A:** inactive

**Q:** Record: C=C(C)C(=O)OCC(CC)(COC(=O)C(=C)C)COC(=O)C(=C)C
**A:** inactive

**Q:** Record: Oc1c(Cl)cc(Cl)c(Cl)c1Cc1c(O)c(Cl)cc(Cl)c1Cl
**A:** active

**Q:** Record: CCCCC(CC)(CO)CO
**A:** inactive

**Q:** Record: O=P(O)(O)O
**A:** inactive

**Q:** Record: O=CN1CCOCC1
**A:** active

**Q:** Record: CCCC[O][Al]([O]CCCC)[O]CCCC
**A:** inactive

**Q:** Record: C=Cc1ccc(C(C)(C)C)cc1
**A:** inactive

**Q:** Record: CC(C)=CCCC(C)CC(=O)O (centres undefined)
**A:** inactive

**Q:** Record: N#Cc1cscn1
**A:** inactive

###

Assayed target: X-box-binding protein 1 (Homo sapiens)
Measurement description: ATG_Xbp1_CIS: Attagene CIS-FACTORIAL HepG2 Assay for human X-box Binding Protein 1 (XBP1) (AID 2282972)
Conditions used: HepG2 XBP1 cis-element reporter, Attagene multiplex; actives raise or lower the signal
Method: ATG_CIS is a cell-based, multiplexed-readout assay that uses HepG2, a human liver cell line, with measurements taken at 24 hours after chemical dosing in a 24-well plate.ATG_Xbp1_CIS is one of 52 assay component(s) measured or calculated from the ATG_CIS assay. […] This assay endpoint, ATG_Xbp1_CIS, was analyzed with bidirectional fitting relative to DMSO as the negative control and baseline of activity. […]
Activity calls are given as the source filed them. Rule for the calls: active = hit-call score of the fitted dose curve at least 0.9, where 1 is the maximum; inactive = score below 0.9.
Result category, one only: 1 for active, 0 for inactive

Example entries and their recorded answers appear below.
OCCOCCN1CCN(C2=Nc3ccccc3Sc3ccccc32)CC1    0
CCc1ncc(C)[nH]1    0
CCC1CCCCC1    0
CCc1ccc(O)cc1    0
C=CC(=O)OCCC#N    1

**Q:** How was Nc1c(S(=O)(=O)O)cc(Br)c2c1C(=O)c1ccccc1C2=O classified in this test?
**A:** 0

**Q:** Record: CCOc1ccc(N=Nc2ccc(C=Cc3ccc(N=Nc4ccc(OCC)cc4)cc3S(=O)(=O)O)c(S(=O)(=O)O)c2)cc1
**A:** 0

**Q:** Record: COC(=O)Nc1ccc(Cl)c(Cl)c1
**A:** 1

**Q:** Record: O=C1OC[C@H](Cc2cccc(O)c2)[C@H]1Cc1cccc(O)c1
**A:** 0

###

Assayed target: Nuclear receptor subfamily 1 group I member 3 (Homo sapiens)
Measurement description: ATG_CAR_TRANS: Attagene TRANS-FACTORIAL HepG2 Assay for human Constitutive Androstane Receptor (CAR) (AID 2282969);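 note: activators raise reporter mRNA above DMSO so AC50 marks induction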
Conditions used: HepG2 Attagene TRANS-FACTORIAL CAR reporter
Records with an inconclusive call do not appear. The source made the active and inactive calls. Rule for the calls: active = hit-call score of the fitted dose curve at least 0.9, where 1 is the maximum; inconclusive = response in the unintended direction; inactive = score below 0.9.
Result category, one only: active, inactive

**Q:** How was C1CCCCC1 classified in this test?
**A:** inactive

**Q:** Record: CC(C)=CCCC(C)CC(=O)O (stereo not given)
**A:** inactive

**Q:** Record: CC=Cc1ccc(OCC)c(O)c1
**A:** inactive

**Q:** Record: CC(C)(C)C1=CC(=O)C(C(C)(C)C)=CC1=O
**A:** active

**Q:** Record: CC(=O)c1c(C)c([N+](=O)[O-])c(C(C)(C)C)c([N+](=O)[O-])c1C
**A:** inactive

**Q:** Record: N#Cc1ccc(CC(=O)c2cccc(C(F)(F)F)c2)cc1
**A:** inactive

**Q:** Record: c1ccc(CN(Cc2ccccc2)Cc2ccccc2)cc1
**A:** inactive

**Q:** Record: CCCCCCC(C)(C)S
**A:** inactive

**Q:** Record: C=CC(C)C#N (stereo not given)
**A:** inactive

**Q:** Record: CC1(C)COCN1
**A:** inactive

**Q:** Record: CC1=CC[C@@]23C[C@@H]1C(C)(C)[C@@H]2CC[C@H]3C
**A:** inactive

**Q:** Record: CSCCC=O
**A:** inactive

**Q:** Record: COCCOC(=O)c1ccccc1C(=O)OCCOC
**A:** inactive

**Q:** Record: C[Si]1(C)O[Si](C)(C)O[Si](C)(C)O1
**A:** inactive

All values here come from PubChem BioAssay (EPA / NIEHS).
